# System: Beta-galactosidase (Escherichia coli), counter-screen for EBI2 antagonists
# test_details: E. coli beta-galactosidase enzyme inhibition, confirmation, counter-screen for EBI2 antagonist project, biochemical, luminescence, single concentration (AID 652176);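 also: 0% = DMSO wells with enzyme and 100% = wells lacking enzyme; higher means stronger loss of beta-gal luminescence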
# test_settings: purified beta-galactosidase, luminescent Galacton Star, 15 min; at 5 µM; hits give high values
Among all 2,400 compounds or so, about 25 (1%) were called active. Not all results are given here.
recorded_endpoint: inhibition (%)
Numeric answer only, unit % assumed.

// below: answered molecules
molecule	test_target	inhibition (%)
Cc1ccc(-c2nn(-c3ccccc3)cc2/C=C/C(=O)Nc2cccc(S(N)(=O)=O)c2)cc1	Beta-galactosidase (Escherichia coli), counter-screen for EBI2 antagonists	7.52
COc1ccc(-c2cc(NC=O)c3ncc(-c4cccc(C(=O)N(C)C)c4)n3c2)c(OC)c1	Beta-galactosidase (Escherichia coli), counter-screen for EBI2 antagonists	-10.8
CCOC(=O)N1CCN(C(=O)COc2ccc(Br)cc2)CC1	Beta-galactosidase (Escherichia coli), counter-screen for EBI2 antagonists	2.79
O=C(c1cc2ccccc2o1)N1CCN(S(=O)(=O)c2ccc(Cl)s2)CC1	Beta-galactosidase (Escherichia coli), counter-screen for EBI2 antagonists	3.41
O=C(NCc1ccc(Cl)cc1)c1cc(=O)nc2sc(-c3ccccc3)nn12	Beta-galactosidase (Escherichia coli), counter-screen for EBI2 antagonists	2.99
COc1ccc(-n2c(Cc3cccn3C)nnc2SCC(=O)Nc2cc(C)cc(C)c2)cc1	Beta-galactosidase (Escherichia coli), counter-screen for EBI2 antagonists	5.9
CC1CCc2sc3nc(N4CCN(CCO)CC4)n4ncnc4c3c2C1 (stereo unspecified)	Beta-galactosidase (Escherichia coli), counter-screen for EBI2 antagonists	-1.4
CCCCC(=O)N(C)c1c(CC)nc2c(OCc3ccc(Cl)cc3Cl)cccn12	Beta-galactosidase (Escherichia coli), counter-screen for EBI2 antagonists	-8.17

Lookup: I have this molecule here, Cc1ccc(S(=O)(=O)N2CCN(C(=O)CSc3cc(C)ccc3C)CC2)c(C)c1 , and I need its recorded inhibition.
Found: 2.31

Lookup: I have this molecule here, Cc1ccc(SCC(=O)N2CCN(c3ccc(F)cc3)CC2)cc1 , and I need its recorded inhibition.
Found: 1.65

Lookup: I have this molecule here, COc1ccc(OCC(=O)N2CCN(C(=O)c3cccs3)CC2)cc1 , and I need its recorded inhibition.
Found: 8.51

====

# Tested on: Beta-galactosidase (Escherichia coli), counter-screen for EBI2 antagonists
# test_details: E. coli beta-galactosidase enzyme inhibition, confirmation, counter-screen for EBI2 antagonist project, biochemical, luminescence, single concentration (AID 652176);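 also: 0% = DMSO wells with enzyme and 100% = wells lacking enzyme; higher means stronger loss of beta-gal luminescence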
# test_settings: purified beta-galactosidase, luminescent Galacton Star, 15 min; at 5 µM; hits give high values
Screen size: about 2,400 compounds; about 25 (1%) were called active. Only a sample is shown.
recorded_endpoint: inhibition (%)
Numeric answer only, unit % assumed.

// below: answered compounds
compound	test_target	unit_spec	quantitative_readout
CC1(Cc2ccccc2C#N)C(=O)Nc2ccc(-c3ccc4[nH]ccc4c3)cc21 (stereo not given)	Beta-galactosidase (Escherichia coli), counter-screen for EBI2 antagonists	%	-12.8
O=C(COc1ccc2c(c1)CCC2)N1CCN(c2ccc(F)cc2)CC1	Beta-galactosidase (Escherichia coli), counter-screen for EBI2 antagonists	%	-10.9
CCN(CC(=O)NCc1cccs1)C(=O)/C=C/c1ccc(C)cc1	Beta-galactosidase (Escherichia coli), counter-screen for EBI2 antagonists	%	1.05
O=C(NCCCc1ccccc1)C1CCC(=O)N(CCc2ccc(Cl)cc2)C1 (stereo not given)	Beta-galactosidase (Escherichia coli), counter-screen for EBI2 antagonists	%	1.78
COc1cccc(NC(=O)Cn2c3ccccc3c3nc4n(c(=O)c32)CCS4)c1	Beta-galactosidase (Escherichia coli), counter-screen for EBI2 antagonists	%	-5.55
CCC(c1nnc(SCC(=O)NNC(=O)c2ccccc2)n1Cc1ccccc1)N(C)C (stereo not given)	Beta-galactosidase (Escherichia coli), counter-screen for EBI2 antagonists	%	-17.6
O=C(c1cc(=O)c2ccccc2o1)N1CCN(c2ccccc2)CC1	Beta-galactosidase (Escherichia coli), counter-screen for EBI2 antagonists	%	2.55
COc1ccc([C@H]2CC(=O)C=C(c3ccc(C)cc3)C2)cc1	Beta-galactosidase (Escherichia coli), counter-screen for EBI2 antagonists	%	5.89

Lookup: I have this compound here, COc1ccccc1N1CCN(C(=O)c2cc(=O)c3cc(C)ccc3o2)CC1 , and I need its recorded inhibition.
Found: 2.71

Lookup: I have this compound here, Cc1cccc(OCC(O)CN2CCN(S(=O)(=O)c3ccc(C)cc3C)CC2)c1 (stereo not given) , and I need its recorded inhibition.
Found: -7.67

Origin of the recorded values: PubChem BioAssay AID652176
